Ref: ChEMBL document CHEMBL1122423

Species on record: Cricetulus griseus
Assay: Inhibition of AHAT-catalyzed transacylation of 4-aminoazobenzene
Transacetylation rate strictly less than 0.3 nmol/min/mg = yes. Otherwise no.

1. CC(=O)N(O)c1ccc(/C=C/c2ccccc2)cc1    no

Is it true that Transacetylation rate reported for O=C(CO)Nc1ccc2c(c1)Cc1ccccc1-2 is less than 0.3 nmol/min/mg?
yes

###

Organism: Cricetulus griseus
Test: Inhibition of AHAT-catalyzed transacylation of 4-aminoazobenzene
Quick rule for you: Transacetylation rate at 0.7 nmol/min/mg or higher means rule met, lower means rule not met.

Known results for molecules:
1) CC(=O)N(O)c1ccc(-c2ccccc2)cc1    rule met
2) CC(=O)Nc1ccc2c(c1O)Cc1ccccc1-2    rule not met
3) CC(=O)N(O)c1ccc2c(c1)Cc1ccccc1-2    rule met
4) O=C(CO)Nc1ccc(/C=C/c2ccccc2)cc1    rule not met
5) CC(=O)Nc1ccc(-c2ccccc2)cc1    rule not met

Form field: Transacetylation rate at least 0.7 nmol/min/mg? Entry: O=C(CO)Nc1ccc(-c2ccccc2)cc1
rule not met

Form field: Transacetylation rate at least 0.7 nmol/min/mg? Entry: CC(=O)Nc1cc2c(cc1O)-c1ccccc1C2
rule not met
